- test_system: human tau(pS422) (Homo sapiens, UniProt P10636, S739X)
- run_description: BIAcore kinetic screening and kinetic rates of humanized VH/VL combinations
- Type: binding
- condition_summary: 25 °C; VL17 or VL19 with VH variants
reported_property: t/2 diss (min)
I only need the number, in min, no unit after it.

| molecule | unit_tag | t/2 diss |
| --- | --- | --- |
| VL19 with VH22: anti-human tau(pS422) antibody; VH SEQ ID NO: 54, VL SEQ ID NO: 38 (antibody, V domains shown, humanized sequence) VH: EVQLLESGGGLVQPGGSLRLSCAASGFSLSSNAINWVRQAPGKGLEWVGYIAVSGNTYYADSVKGRFTISRDNSKNTLYLQMNSLRAEDTAVYYCGKSNIWGQGTLVTVSS VL: AQVMTQSPSSLSASVGDRVTITCRSSQSVRTNKLAWFQQKPGQPPKRLIYSASTLDFGVPSRFSGSGSGTEFTLTISSLQPEDFATYYCLGYFDCSIADCVAFGGGTKVEIK | min | 6 |

Please report the recorded t/2 diss for VL19 with VH24: anti-human tau(pS422) antibody; VH SEQ ID NO: 56, VL SEQ ID NO: 38 (antibody, V domains shown, humanized sequence) VH: EVQLLESGGGLVQPGGSLRLSCAASGFSLSSNAINWVRQAPGKGLEWVGYIAVSGNTYYADSVKGRFTISKDNSKNTVYLQMNSLRAEDTAVYYCGKSNIWGQGTLVTVSS VL: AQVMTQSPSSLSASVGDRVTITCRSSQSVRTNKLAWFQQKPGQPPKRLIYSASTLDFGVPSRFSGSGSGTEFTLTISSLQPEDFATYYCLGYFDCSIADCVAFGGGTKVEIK . 18

Cool, now VL17 with VH02: anti-human tau(pS422) antibody; VH SEQ ID NO: 47, VL SEQ ID NO: 37 (antibody, V domains shown, humanized sequence) VH: QSVLESGGGLVQPGGSLRLSCAASGFSLSSNAINWVRQAPGKGLEWVGYIAVSGNTYYASWAKGRFTISRDNSKNTLYLQMNSLRAEDTAVYYCGKSNIWGPGTLVTVSS VL: DIQMTQSPSSLSASVGDRVTITCRSSQSVRTNKLAWFQQKPGQPPKRLIYSASTLDFGVPSRFSGSGSGTEFTLTISSLQPEDFATYYCLGYFDCSIADCVAFGGGTKVEIK 3
